Assign pIC50 to each entry below.
Test system: CEM cells HIV-1 protection, formazan growth assay
methodDescription: NCI AIDS Antiviral Assay
protocolConditions: measured here: growth of uninfected CEM cells
pIC50: −log10 of the molar value.

Challenge: Report measured pIC50; entry is N#Cc1ccc(CSC2=C(c3ccc(Cl)cc3)S/C(=C3\SC(SCc4ccc(C#N)cc4)=C(c4ccc(Cl)cc4)S3)S2)cc1
Response given: < 4.00

Challenge: Report measured pIC50; entry is O=C(O)CCc1nc(-c2ccccc2)c(-c2ccccc2)o1
Response given: < 3.70

Challenge: Report measured pIC50; entry is c1cc2nc(c1)CSCCCCCCCCSC2
Response given: < 4.45

Challenge: Report measured pIC50; entry is O=[N+]([O-])/C(C(Cl)=C(Cl)Cl)=C(\SCc1ccccc1)N1CCCCC1
Response given: < 3.70

Challenge: Report measured pIC50; entry is CCO[C@H]1OC(=O)[C@@H]2C(c3ccc(F)cc3)=NO[C@H]12
Response given: < 3.87

Challenge: Report measured pIC50; entry is OC1[C@H]([C@H]2CCCC[C@@H]2O)CCC[C@@H]1[C@@H]1CCCC[C@H]1O (stereo partly drawn)
Response given: < 3.77

Challenge: Report measured pIC50; entry is Nc1ccc(N=O)c(N)n1
Response given: < 3.70

Challenge: Report measured pIC50; entry is O=C(C1C(c2ccccc2)N1C(c1ccccc1)c1ccccc1)C1C(c2ccccc2)N1C(c1ccccc1)c1ccccc1 (stereo not drawn)
Response given: < 5.47

Challenge: Report measured pIC50; entry is Cc1[nH]n(C(=O)c2ccc(Cl)cc2)c(=O)c1/C=C1\C(O)=CC(=O)c2ccccc21
Response given: < 4.89

Challenge: Report measured pIC50; entry is O=C1Cc2ccccc2N1/N=C\c1ccc([N+](=O)[O-])cc1
Response given: < 4.17

Challenge: Report measured pIC50; entry is O=C(O)[C@H]1CSCN1C(=O)c1ccccc1SSc1ccccc1C(=O)N1CSC[C@H]1C(=O)O
Response given: < 3.70

Challenge: Report measured pIC50; entry is CCN1CCC(C)OP1(=O)Cc1ccccc1 (stereo not drawn)
Response given: < 3.70

Challenge: Report measured pIC50; entry is CSc1nc(-c2ccccc2)[nH]c(=O)n1
Response given: < 3.70

---

Tested on: CEM cells HIV-1 protection, formazan growth assay
methodDescription: NCI AIDS Antiviral Assay
pEC50: −log10 of the molar value.
measurementName: pEC50

Challenge: Report measured pEC50; entry is Cc1c2sc3ccccc3[nH]c2nc2[nH]c3ccccc3sc12
Response given: < 4.42

Challenge: Report measured pEC50; entry is Oc1ccc(CCc2nc3ccccc3[nH]2)cc1
Response given: < 3.70

Challenge: Report measured pEC50; entry is CC(=O)Cc1cc(=O)c2c(C)cc(O)c(C3OC(CO)C(O)C(O)C3O)c2o1 (centres undefined)
Response given: 4.50

Challenge: Report measured pEC50; entry is NC(=O)c1ccc(S(=O)(=NS(=O)(=O)c2ccccc2)c2ccc(C(N)=O)cc2)cc1
Response given: < 3.53

---

Tested on: CEM cells HIV-1 protection, formazan growth assay
methodDescription: NCI AIDS Antiviral Assay
protocolConditions: measured here: growth of uninfected CEM cells
Method: The ability of compounds to protect human CEM cells from HIV-1 infection is measured as a screen for new compounds capable of inhibiting the HIV virus. Five concentrations of drug were tested on uninfected and infected cells and cell growth was measured using a soluble formazan assay. […] Compounds that provided at least 50% protection were retested. Compounds that provided at least 50% protection on retest were listed as moderately active. […]
Where a SMILES comes first, the peptide text is derived from it. Bridges are numbered along the chain shown (N, C = ends).
measurementName: IC50

Challenge: Report measured IC50; entry is Cc1ccc(/C=C2\CCOC2=O)cc1
Response given: > 138 µM

Challenge: Report measured IC50; entry is N#CC(C(=O)/C(=N\Nc1nc(=S)[nH]n1N)C(C#N)c1ccc(Cl)cc1)c1ccc(Cl)cc1 (centres undefined)
Response given: > 53.7 µM

Challenge: Report measured IC50; entry is Cc1ccc(SSc2ccc(C)cc2C(=O)O)c(C(=O)O)c1
Response given: > 200 µM

Challenge: Report measured IC50; entry is COC(=O)C(=O)C(C(C)=O)C(=O)C(=O)Nc1ccc(C)cc1C (centres undefined)
Response given: > 112 µM

Challenge: Report measured IC50; entry is CCCc1nc(NC#N)nc(C(=O)NC23CC4CC(CC(C4)C2)C3)c1C
Response given: > 355 µM

Challenge: Report measured IC50; entry is N#CC1C2C1C1C=CC2n2c(=O)n(-c3ccccc3)c(=O)n21 (centres undefined)
Response given: > 200 µM

Challenge: Report measured IC50; entry is COC(=O)C1ON2C(C1C(=O)OC)C(C)(C)N(O)C2(C)C (centres undefined)
Response given: > 200 µM

Challenge: Report measured IC50; entry is O=S(=O)(c1ccccc1)N1CC2CC(Br)C(Br)CC21 (centres undefined)
Response given: > 45.7 µM

Challenge: Report measured IC50; entry is O=C1CC(C(O)CO)CC(=O)N1 (centres undefined)
Response given: > 200 µM

Challenge: Report measured IC50; entry is Cc1oc(NC(=O)C(=O)O)c(C#N)c1C
Response given: > 200 µM

Challenge: Report measured IC50; entry is CCOC(=O)C1CSSCC(N)C(=O)N1 (stereo not drawn) (H-Cys-Cys-OEt; disulfide 1-2; configuration not given here)
Response given: > 200 µM

Challenge: Report measured IC50; entry is CNC(=O)N(CCCCC(NC(C)=O)C(=O)NCc1ccccc1)Cc1ccccc1 (centres undefined)
Response given: > 589 µM

Challenge: Report measured IC50; entry is NC(=O)c1ccc(S(=O)(=NS(=O)(=O)c2ccccc2)c2ccc(C(N)=O)cc2)cc1
Response given: > 295 µM

Challenge: Report measured IC50; entry is COc1ccc2c(=O)c3c([nH]c2c1)OCC3=O
Response given: > 100 µM

---

System: CEM cells HIV-1 protection, formazan growth assay
methodDescription: NCI AIDS Antiviral Assay
protocolConditions: measured here: growth of uninfected CEM cells
Experimental: The ability of compounds to protect human CEM cells from HIV-1 infection is measured as a screen for new compounds capable of inhibiting the HIV virus. Five concentrations of drug were tested on uninfected and infected cells and cell growth was measured using a soluble formazan assay. […] Compounds that provided at least 50% protection were retested. Compounds that provided at least 50% protection on retest were listed as moderately active. […]
pIC50: −log10 of the molar value.
measurementName: pIC50

Challenge: Give pIC50 for this entry on CEM cells HIV-1 protection, formazan growth assay: CC1CC(c2ccccc2)Nc2nc3ccccc3n21 (stereo unspecified)
Response given: < 3.82

Challenge: Give pIC50 for this entry on CEM cells HIV-1 protection, formazan growth assay: O=C1c2ccccc2C(=O)c2c(O)ccc(O)c21
Response given: < 4.11

Challenge: Give pIC50 for this entry on CEM cells HIV-1 protection, formazan growth assay: O=C(OC(=C(c1ccccc1)c1ccccc1)N1CCCC1=S)C(c1ccccc1)c1ccccc1
Response given: < 3.70

Challenge: Give pIC50 for this entry on CEM cells HIV-1 protection, formazan growth assay: CS(=O)(=O)c1c(N)c2nc(Cl)cn2c2nc3ccccc3nc12
Response given: < 5.24

Challenge: Give pIC50 for this entry on CEM cells HIV-1 protection, formazan growth assay: Cc1cc(C)nc(NS(=O)(=O)c2ccc(NC(=O)c3cccc4c(Nc5ccc(S(=O)(=O)N=C(N)N)cc5)c5ccc(Cl)cc5nc34)cc2)n1
Response given: < 4.31

Challenge: Give pIC50 for this entry on CEM cells HIV-1 protection, formazan growth assay: NC(=O)C12C(=O)NC(=O)C1(C(=O)O)C21CCCC1 (stereo unspecified)
Response given: < 3.70

---

Tested on: CEM cells HIV-1 protection, formazan growth assay
methodDescription: NCI AIDS Antiviral Assay
protocolConditions: measured here: growth of uninfected CEM cells
Assign IC50 to each entry below.
Could you give me the number in µM? Just the number is fine.

Challenge: Report measured IC50; entry is c1ccc(N=C(N2CCCC2)N(CCN2CCCC2)c2ccccc2)cc1
Response given: 9.33

Challenge: Report measured IC50; entry is Cc1cc(N=O)cc(Cl)c1O
Response given: 10.5

Challenge: Report measured IC50; entry is COc1cc(/C=C2\CCC(C)/C(=C\c3cc(OC)c(OC)c(OC)c3)C2=O)cc(OC)c1OC (stereo not drawn)
Response given: 7.24

---

System: CEM cells HIV-1 protection, formazan growth assay
methodDescription: NCI AIDS Antiviral Assay
protocolConditions: measured here: growth of uninfected CEM cells
Method: The ability of compounds to protect human CEM cells from HIV-1 infection is measured as a screen for new compounds capable of inhibiting the HIV virus. Five concentrations of drug were tested on uninfected and infected cells and cell growth was measured using a soluble formazan assay. […] Compounds that provided at least 50% protection were retested. Compounds that provided at least 50% protection on retest were listed as moderately active. […]
pIC50: −log10 of the molar value.
Assign pIC50 to each entry below.

Challenge: Report measured pIC50; entry is Cc1cccc(-n2c(N)c(-c3nc4ccccc4[nH]3)sc2=S)c1
Response given: < 5.23

Challenge: Report measured pIC50; entry is COC(=O)C(C(=O)C(=O)Nc1c(Cl)cc([N+](=O)[O-])cc1Cl)c1nc2cc(C)c(C)cc2[nH]c1=O (stereo not drawn)
Response given: < 4.01

Challenge: Report measured pIC50; entry is Cc1ccc(C(=O)CC2=Nc3nnc(CCCCCCCc4nnc5n4C(=O)C(CC(=O)c4ccc(C)cc4)=N5)n3C2=O)cc1
Response given: < 5.62
